Reference for the values: ChEMBL document CHEMBL4373702

# Experiment summary: Stability in human liver microsomes relative to hepatic blood flow
# Type: ADME, Microsome
# Condition set: read-out: Stability
Assay metric: hepatic extraction ratio

Task item: Fill in the blank: the reported hepatic extraction ratio of `Cc1cc2c(cc(C(=O)N[C@H](CO)c3ccc(S(=O)(=O)CC(=O)O)cc3)n2C)c(Cl)c1Cl` is ____.
Reply: < 0.24

---

# Measurement target: D-3-phosphoglycerate dehydrogenase (Homo sapiens, UniProt O43175)
# Sequence (O43175 whole entry, the tested form may be a part): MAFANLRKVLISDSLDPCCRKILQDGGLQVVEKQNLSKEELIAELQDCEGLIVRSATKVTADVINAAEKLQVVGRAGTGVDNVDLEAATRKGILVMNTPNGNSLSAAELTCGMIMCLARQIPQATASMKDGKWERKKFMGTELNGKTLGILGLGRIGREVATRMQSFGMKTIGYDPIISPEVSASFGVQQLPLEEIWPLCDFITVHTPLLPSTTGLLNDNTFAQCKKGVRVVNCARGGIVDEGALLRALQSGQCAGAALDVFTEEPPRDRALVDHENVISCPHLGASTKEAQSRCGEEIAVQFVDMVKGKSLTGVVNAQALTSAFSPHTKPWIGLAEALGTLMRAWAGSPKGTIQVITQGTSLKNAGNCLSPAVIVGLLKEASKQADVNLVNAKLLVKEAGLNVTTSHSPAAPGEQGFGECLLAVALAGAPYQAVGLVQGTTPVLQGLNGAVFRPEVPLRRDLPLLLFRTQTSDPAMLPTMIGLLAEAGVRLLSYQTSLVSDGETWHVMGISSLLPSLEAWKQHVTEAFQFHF
# Experiment summary: Inhibition of N-terminal His6-tagged human PHGDH (4 to 315 residues) assessed as effect on NADH fluorescence incubated for 2 hrs using 3-PG substrate in presence of 250 uM NAD+ and PSAT1 by diaphorase based luminescence assay
List of IC50 values.
Give the value in nM but do not write nM after it.

{"columns": ["Mol", "Measurement target", "Number"],
 "data": [
  ["C[C@@H](NC(=O)c1cc2c(Cl)c(Cl)ccc2n1C)c1ccc(C(=O)O)cc1", "D-3-phosphoglycerate dehydrogenase (Homo sapiens, UniProt O43175)", 228],
  ["Cc1cc(Cl)c2cc(C(=O)N[C@H](C)c3ccc(C(=O)O)cc3)n(C)c2c1", "D-3-phosphoglycerate dehydrogenase (Homo sapiens, UniProt O43175)", 246],
  ["Cc1cc2c(cc1Cl)cc(C(=O)N[C@H](C)c1ccc(C(=O)O)cc1)n2C", "D-3-phosphoglycerate dehydrogenase (Homo sapiens, UniProt O43175)", 412],
  ["COc1cc(F)c(Cl)c2cc(C(=O)N[C@H](C)c3ccc(C(=O)O)cc3)n(C)c12", "D-3-phosphoglycerate dehydrogenase (Homo sapiens, UniProt O43175)", 1290],
  ["COc1cc(Cl)cc2cc(C(=O)N[C@H](C)c3ccc(C(=O)O)cc3)n(C)c12", "D-3-phosphoglycerate dehydrogenase (Homo sapiens, UniProt O43175)", 746]
]}

Task item: Value wanted: IC50 (D-3-phosphoglycerate dehydrogenase (Homo sapiens, UniProt O43175)) of entry `C[C@@H](NC(=O)c1cc2c(Cl)cc(C(F)F)cc2n1C)c1ccc(C(=O)O)cc1`
Reply: 714
